target: T1, Ala mutant SEQ ID NO: 42 (human); assay: ELISA, peptide on plate (10 ug/mL)
T1 sequence (peptide): EENMDDQWMQDEMEIAY
Readout Label: absorbance 490 nm/630 nm (OD)
// units = OD; emit number, no label

Example entries and their recorded answers appear below.
G8 (antibody, IgG1, V domains shown) VH: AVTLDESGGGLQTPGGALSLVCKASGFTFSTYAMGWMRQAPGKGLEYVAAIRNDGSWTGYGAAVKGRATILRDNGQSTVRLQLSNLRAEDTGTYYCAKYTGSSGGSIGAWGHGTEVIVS VL: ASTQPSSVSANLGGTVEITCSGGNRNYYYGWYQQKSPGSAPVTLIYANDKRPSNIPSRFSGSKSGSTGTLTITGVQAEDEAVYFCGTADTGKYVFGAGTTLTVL; 1.86
H7 (antibody, IgG1, V domains shown) VH: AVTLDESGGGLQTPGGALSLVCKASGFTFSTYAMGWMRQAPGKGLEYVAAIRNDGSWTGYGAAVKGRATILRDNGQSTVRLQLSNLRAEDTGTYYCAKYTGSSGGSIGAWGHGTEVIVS VL: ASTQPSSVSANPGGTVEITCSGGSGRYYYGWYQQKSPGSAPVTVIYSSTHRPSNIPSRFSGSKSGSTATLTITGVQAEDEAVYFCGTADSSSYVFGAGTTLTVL; 1.85

Exercise: Give the measured absorbance 490 nm/630 nm of E9 (antibody, IgG1, V domains shown) VH: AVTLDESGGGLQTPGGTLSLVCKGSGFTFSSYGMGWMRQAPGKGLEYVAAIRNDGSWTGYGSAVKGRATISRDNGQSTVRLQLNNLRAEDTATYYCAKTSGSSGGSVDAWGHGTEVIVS VL: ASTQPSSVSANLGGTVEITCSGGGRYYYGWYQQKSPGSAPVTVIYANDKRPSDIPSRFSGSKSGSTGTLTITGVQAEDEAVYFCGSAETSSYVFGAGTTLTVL .
Key: 1.83
